system: Small Brown Planthopper (Laodelphax Striatellus); test: Test of insecticidal efficacy against small brown planthopper (Test Example 2); type: in vivo; conditions: 500 ppm, rice plants soaked 30 seconds, third-instar larvae, eight days after inoculation; criteria same as in Test Example 1
measure.name: Corrected insect mortality, judgment

INSERT INTO measurements (structure_as_smiles, val) VALUES
  ('Nc1ccc2c(c1)NC(=O)c1nn(-c3cccnc3)cc1O2', 'A to D'),
  ('CN1C(=O)c2nn(-c3cccnc3)cc2Oc2ccc(N)cc21', 'A to D'),
  ('COCN1C(=O)c2nn(-c3cccnc3)cc2Oc2cc(F)ccc21', 'A to D'),
  ('CN1C(=O)c2nn(-c3cncnc3)cc2Oc2ccccc21', 'A to D'),
  ('CN1C(=O)c2nn(-c3cccnc3)cc2Oc2ccc(C(F)(F)F)cc21', 'A to D'),
  ('CS(=O)(=O)CN1C(=O)c2nn(-c3cccnc3)cc2Oc2ccc(F)cc21', 'A to D'),
  ('CS(=O)(=O)CN1C(=O)c2nn(-c3cccnc3)cc2Oc2ccccc21', 'A to D'),
  ('CC(=O)N1C(=O)c2nn(-c3cccnc3)cc2Oc2ccccc21', 'A to D'),
  ('CN(C)CCN1C(=O)c2nn(-c3cccnc3)cc2Oc2ccccc21', 'A to D'),
  ('CSCN1C(=O)c2nn(-c3cccnc3)cc2Oc2cc(F)ccc21', 'A to D'),
  ('NC1=Nc2ccccc2Oc2cn(-c3cccnc3)nc21', 'A to D'),
  ('C#CCN1Cc2nn(-c3cccnc3)cc2Oc2ccccc21', 'A to D'),
  ('N#CCN1C(=O)c2nn(-c3cccnc3)cc2Oc2ccccc21', 'A to D'),
  ('O=C1c2nn(-c3cccnc3)cc2Oc2cc(F)ccc2N1CCCCBr', 'A to D'),
  ('CN1C(=O)c2nn(-c3cccnc3)cc2Oc2c(Cl)cccc21', 'A to D'),
  ('C=CCN1C(=O)c2nn(-c3cccnc3)cc2Oc2ccc(F)cc21', 'A to D'),
  ('C=CCN(CC=C)C1=Nc2cc(F)ccc2Oc2cn(-c3cccnc3)nc21', 'A to D'),
  ('N#CCN1C(=O)c2nn(-c3cccnc3)cc2Oc2c(F)cccc21', 'A to D'),
  ('O=C1Nc2cccc(F)c2Oc2cn(-c3cccnc3)nc21', 'A to D'),
  ('Fc1ccc2c(c1)NCc1nn(-c3cccnc3)cc1O2', 'A to D'),
  ('COc1ccc2c(c1)Oc1cn(-c3cccnc3)nc1C(=O)N2C', 'A to D');
